target: IRE-1α (Homo sapiens (Human))
Sequence (O75460 19-977): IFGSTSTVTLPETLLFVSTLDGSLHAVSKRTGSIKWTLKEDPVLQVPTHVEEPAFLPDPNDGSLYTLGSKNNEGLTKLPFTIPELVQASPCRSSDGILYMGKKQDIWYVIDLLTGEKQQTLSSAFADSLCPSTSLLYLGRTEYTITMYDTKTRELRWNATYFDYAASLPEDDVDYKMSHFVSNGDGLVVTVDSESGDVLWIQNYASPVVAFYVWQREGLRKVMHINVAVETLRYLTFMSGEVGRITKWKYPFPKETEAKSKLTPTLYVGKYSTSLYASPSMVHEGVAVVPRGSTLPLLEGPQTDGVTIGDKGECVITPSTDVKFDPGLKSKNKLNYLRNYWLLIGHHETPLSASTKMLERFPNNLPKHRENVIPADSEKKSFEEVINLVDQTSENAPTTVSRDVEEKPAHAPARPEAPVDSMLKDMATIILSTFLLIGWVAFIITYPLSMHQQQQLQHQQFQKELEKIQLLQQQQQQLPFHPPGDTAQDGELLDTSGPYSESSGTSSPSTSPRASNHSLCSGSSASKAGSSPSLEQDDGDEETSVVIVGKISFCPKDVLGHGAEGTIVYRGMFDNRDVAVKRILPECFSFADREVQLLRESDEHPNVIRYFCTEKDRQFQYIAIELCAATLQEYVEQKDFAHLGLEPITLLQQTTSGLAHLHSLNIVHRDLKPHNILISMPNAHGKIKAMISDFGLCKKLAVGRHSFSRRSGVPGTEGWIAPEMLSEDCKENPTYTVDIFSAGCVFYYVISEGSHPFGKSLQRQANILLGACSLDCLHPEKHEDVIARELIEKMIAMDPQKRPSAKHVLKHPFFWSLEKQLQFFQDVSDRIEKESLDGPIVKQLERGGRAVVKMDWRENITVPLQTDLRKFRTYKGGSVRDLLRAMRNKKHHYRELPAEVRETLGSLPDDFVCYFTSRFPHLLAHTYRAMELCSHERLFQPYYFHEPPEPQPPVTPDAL
protocol_text: IRE-1α assay: in vitro cleavage of mini-XBP-1 mRNA stem-loop substrate by GST-IRE-1α
Assay type: biochemical
setup_conditions: Table 3
recorded_metric: IC50
Phrase the answer as number then unit, nothing more needed.

Past entries and their recorded results:
compound	recorded_metric	data_value
COc1cccc(C=O)c1O [drawing 238]	IC50	5.75 µM
COc1ccc(Br)c(C=O)c1O [drawing 180]	IC50	0.08 µM

Now, please, on to the next compound.
Entry under review: COc1cccc(C=O)c1O [drawing 230] . Reported IC50?
2.37 µM
